The origin of these recorded values is paper PMC2864230.

Molecular target: ERα (Homo sapiens, UniProt P03372)
Sequence (P03372 whole entry, species assumed): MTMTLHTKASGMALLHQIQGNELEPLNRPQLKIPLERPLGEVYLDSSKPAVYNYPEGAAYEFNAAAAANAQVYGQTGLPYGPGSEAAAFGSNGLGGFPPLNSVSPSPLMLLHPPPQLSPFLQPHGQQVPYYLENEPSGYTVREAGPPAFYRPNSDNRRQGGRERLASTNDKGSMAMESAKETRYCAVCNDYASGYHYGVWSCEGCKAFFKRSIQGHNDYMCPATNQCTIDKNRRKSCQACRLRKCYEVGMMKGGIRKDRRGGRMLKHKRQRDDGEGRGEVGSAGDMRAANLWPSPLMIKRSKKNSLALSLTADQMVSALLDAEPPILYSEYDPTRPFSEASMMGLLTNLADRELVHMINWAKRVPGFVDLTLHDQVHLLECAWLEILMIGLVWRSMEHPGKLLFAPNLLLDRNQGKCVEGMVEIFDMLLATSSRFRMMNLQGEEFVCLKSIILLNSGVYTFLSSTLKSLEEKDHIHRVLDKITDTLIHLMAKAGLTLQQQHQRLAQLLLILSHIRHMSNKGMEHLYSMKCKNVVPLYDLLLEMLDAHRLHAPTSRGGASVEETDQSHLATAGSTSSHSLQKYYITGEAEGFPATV
Assay: Competitive binding with E2-Alexa633 in COS7 cells transfected with ERα-GFP
pKi: −log10 of the molar value.
RECORDED_METRIC: pKi

Just so you know, measured pKi for Brc1cc2c(cc1[C@@H]1Nc3ccccc3[C@@H]3C=CC[C@@H]31)OCO2 (racemic) [G15] came out at < 5.00
